- protocolNotes: molar heat capacity at constant pressure
- measurementParameters: 323.15 K; 101.33 kPa; Liquid; Small sample (50 mg) DSC
quantityName: molar heat capacity at constant pressure (J/K/mol)

[[record]]
structure = "NCCCCCCN"
reportedresult = 302.14

[[record]]
structure = "NCCCCCCCCCN"
reportedresult = 400.22

[[record]]
structure = "NCCCCN"
reportedresult = 238.97

[[record]]
structure = "NCCN"
reportedresult = 174.72


I: NCCCN
II: NCCCCCCCN
Form field 'greater molar heat capacity at constant pressure' accepts I or II ; which applies? Indicate your choice by writing its label. II

* * *

- protocolNotes: molar heat capacity at constant pressure
- measurementParameters: 317.15 K; 101.33 kPa; Liquid; Small sample (50 mg) DSC
quantityName: molar heat capacity at constant pressure (J/K/mol)

Previously resolved entries follow.
[[record]]
structure = "NCCCN"
quantityname = "molar heat capacity at constant pressure"
reportedresult = 205.73

[[record]]
structure = "NCCCCCCN"
quantityname = "molar heat capacity at constant pressure"
reportedresult = 301.42

[[record]]
structure = "NCCCCCCCCCN"
quantityname = "molar heat capacity at constant pressure"
reportedresult = 399.47

[[record]]
structure = "NCCCCN"
quantityname = "molar heat capacity at constant pressure"
reportedresult = 238.34


I: NCCCCCCCN
II: NCCN
Lab log: flag the item ( I or II ) with the smaller molar heat capacity at constant pressure figure. Indicate your choice by writing its label. II
